Where these numbers come from: patent US10711041B2

assay: Stability investigation of the lyophilisate (visual inspection, reverse HPLC)
Type: physicochemical
measurement-parameters: storage 25° C./60% rH, T = 0
Purity of lyophilisate (stability study) reference
Reply with just the number (in %).

Guide cases for Purity of lyophilisate (stability study), answers given:
{"columns": ["smiles-structure", "value-measured"],
 "data": [
  ["C[C@@H]1NC(=O)CNC(=O)[C@H](CCC(=O)O)NC(=O)[C@@H]2CCCN2C(=O)[C@H]([C@@H](C)O)NC(=O)[C@H](CCC(=O)O)NC(=O)[C@H](CCCNC(=N)N)NC(=O)[C@H](CCC(N)=O)NC(=O)CNC(=O)[C@@H](N)CSSC[C@@H](C(=O)O)NC(=O)[C@H](Cc2ccc(O)cc2)NC(=O)[C@H](Cc2c[nH]c3ccccc23)NC(=O)[C@@H]2CCCN2C(=O)[C@H](CCCCN)NC(=O)[C@H](C)NC(=O)[C@H](CCC(=O)O)NC1=O", 96],
  ["C[C@@H]1NC(=O)CNC(=O)[C@H](CCC(=O)O)NC(=O)[C@@H]2CCCN2C(=O)[C@H]([C@@H](C)O)NC(=O)[C@H](CCC(=O)O)NC(=O)[C@H](CCCNC(=N)N)NC(=O)[C@H](CCC(N)=O)NC(=O)CNC(=O)CCCNC(=O)C[C@@H](C(=O)O)NC(=O)[C@H](Cc2ccc(O)cc2)NC(=O)[C@H](Cc2c[nH]c3ccccc23)NC(=O)[C@@H]2CCCN2C(=O)[C@H](CCCCN)NC(=O)[C@H](C)NC(=O)[C@H](CCC(=O)O)NC1=O", 99],
  ["C[C@@H]1NC(=O)CNC(=O)[C@H](CCC(=O)O)NC(=O)[C@@H]2CCCN2C(=O)[C@H]([C@@H](C)O)NC(=O)[C@H](CCC(=O)O)NC(=O)[C@H](CCCNC(=N)N)NC(=O)[C@H](CCC(N)=O)NC(=O)CNC(=O)[C@@H](N)CCCCNC(=O)CNC(=O)[C@H](Cc2ccc(O)cc2)NC(=O)[C@H](Cc2c[nH]c3ccccc23)NC(=O)[C@@H]2CCCN2C(=O)[C@H](CCCCN)NC(=O)[C@H](C)NC(=O)[C@H](CCC(=O)O)NC1=O", 98]
]}

query: Let me know recorded Purity of lyophilisate (stability study) for "C[C@@H]1NC(=O)CNC(=O)[C@H](CCC(=O)O)NC(=O)[C@@H]2CCCN2C(=O)[C@H]([C@@H](C)O)NC(=O)[C@H](CCC(=O)O)NC(=O)[C@H](CCCNC(=N)N)NC(=O)[C@H](CCC(N)=O)NC(=O)CNC(=O)[C@@H](N)CCCNC(=O)CNC(=O)[C@H](Cc2ccc(O)cc2)NC(=O)[C@H](Cc2c[nH]c3ccccc23)NC(=O)[C@@H]2CCCN2C(=O)[C@H](CCCCN)NC(=O)[C@H](C)NC(=O)[C@H](CCC(=O)O)NC1=O" , thanks.
result: 97
